- Test System: Cannabinoid-1 receptor (CB1R) (Rattus norvegicus, UniProt P20272)
- Construct: The tissue obtained from the brain of SD rats was homogenized; from tissue; host or cells: brain of SD rats (membrane pellet of the homogenate)
- Sequence (P20272 whole entry): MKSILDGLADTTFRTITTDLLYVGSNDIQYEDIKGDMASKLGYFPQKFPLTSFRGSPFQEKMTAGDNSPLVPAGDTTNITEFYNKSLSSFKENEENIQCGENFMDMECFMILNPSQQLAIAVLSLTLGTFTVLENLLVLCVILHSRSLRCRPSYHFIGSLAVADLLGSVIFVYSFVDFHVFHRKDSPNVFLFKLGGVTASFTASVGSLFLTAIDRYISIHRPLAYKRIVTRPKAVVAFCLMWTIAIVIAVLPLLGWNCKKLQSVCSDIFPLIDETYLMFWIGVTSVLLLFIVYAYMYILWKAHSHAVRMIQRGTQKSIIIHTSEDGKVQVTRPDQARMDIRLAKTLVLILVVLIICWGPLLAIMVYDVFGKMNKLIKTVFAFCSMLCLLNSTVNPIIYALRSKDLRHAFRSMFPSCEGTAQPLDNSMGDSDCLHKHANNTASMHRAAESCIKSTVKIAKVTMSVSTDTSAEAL
- Measurement Description: Cannabinoid-1 receptor (CB1R) binding affinity assay ([3H]CP-55940, rat CB-1 receptor binding protocol)
- Assay Setup: brain tissue of SD rats, [3H]CP-55940, 30° C. 60 min; read-out: IC50
Readout: pIC50
Just the number, please; pIC50 means minus log10 of the concentration in mol/L.

[[record]]
molecule = "Cc1c(-c2nc(C(C)C)n(C(C)C)n2)nn(-c2ccc(Cl)cc2Cl)c1-c1ccc(Cl)cc1"
observed_result = 6.07

[[record]]
molecule = "Cc1c(-c2nnc(C3(c4ccc(Cl)cc4)CCC3)o2)nn(-c2c(Cl)cccc2Cl)c1-c1ccc(Cl)cc1"
observed_result = 7.23

[[record]]
molecule = "Cc1c(-c2nnc(C3(C(C)O)CC3)o2)nn(-c2ccc(Cl)cc2Cl)c1-c1ccc(Cl)cc1 (stereo not shown)"
observed_result = 7.22

[[record]]
molecule = "Cc1c(-c2nnc(CC3CCCCC3)o2)nn(-c2ccc(Cl)cc2Cl)c1-c1ccc(Br)cc1"
observed_result = 7.42

[[record]]
molecule = "Cc1c(-c2nnc(C3(c4ccccn4)CC3)o2)nn(-c2ccc(Cl)cc2Cl)c1-c1ccc(Cl)cc1"
observed_result = 7.70

[[record]]
molecule = "CCc1c(-c2nnc(C3(c4ccccc4)CC3)s2)nn(-c2ccc(Cl)cc2Cl)c1-c1ccc(Br)cc1 [Example 450]"
observed_result = 8.13


Ask: Which pIC50 value is on record for Cc1c(-c2nnc(C3(c4ccc(Cl)cc4Cl)CC3)s2)nn(-c2ccc(Cl)cc2Cl)c1-c1ccc(Cl)cc1 ?
Reply: 7.97
